Test: PK study in rats (plasma)
Type: in vivo
Settings: rat, plasma, po, 200 mg/kg; read-out: AUC0-1
Recorded Endpoint: AUC(0-t) (µM·h)
Quick reminder: number only, in µM·h, skip the unit.

Check the records and state AUC(0-t) for O=C(O)c1cccnc1
1680

----------
Experiment: Kinetic solubility
Assay type: physicochemical
Settings: aqueous buffer, kinetic from dmso stock, 0.1 M phosphate buffered saline pH 7.4, target 100 μM, 1.5 h, read-out: Mean Solubility (μg/mL)
Procedure: The target compound concentration was 100 μM (kinetic), the assay buffer was 0.1 M phosphate buffered saline pH 7.4, the mixing period was 1.5 h (kinetic). The sample was prepared by centrifugation or filtration and the detection method used was HPLC with UV-vis spectrometry.
Each entry below carries its reported solubility at 1.5 h.

Answered examples (4):
[
  {
    "Compound": "O=C(OC[C@H]1OC(O)[C@H](O)[C@@H]1O)c1ccccn1 (some centres unmarked)",
    "solubility at 1.5 h": "26.9 µg/mL"
  },
  {
    "Compound": "O=C(OC1O[C@H](CO)[C@@H](O)[C@H]1O)c1cccnc1 (some centres unmarked)",
    "solubility at 1.5 h": "24.6 µg/mL"
  },
  {
    "Compound": "CC(C(=O)O)c1ccc(-c2ccccc2)c(F)c1 (centres unmarked) [Flurbiprofen, reference compound]",
    "solubility at 1.5 h": "27 µg/mL"
  },
  {
    "Compound": "CCCSc1ccc2nc(NC(=O)OC)[nH]c2c1 [Albendazole, reference compound]",
    "solubility at 1.5 h": "0.2 µg/mL"
  }
]

Please look at the following compound next.
State its solubility at 1.5 h: COC(=O)[C@@H](C)NP(=O)(OC[C@H]1OC(OC(=O)c2cccnc2)[C@H](O)[C@@H]1O)Oc1ccccc1 (some centres unmarked)
58 µg/mL

----------
Test: Caco-2 permeability assay
Conditions: human, Caco-2, % Recovery B to A
Recorded Endpoint: recovery (%)
Quick note: give the figure in %, leave out the unit.

Worked cases, recovery given:
[
  {
    "Compound": "O=C(OC[C@H]1OC(O)[C@H](O)[C@@H]1O)c1ccccn1 (some centres unmarked)",
    "recovery, %": 90.7
  },
  {
    "Compound": "O=C(OC1O[C@H](CO)[C@@H](O)[C@H]1O)c1cccnc1 (some centres unmarked)",
    "recovery, %": 89
  }
]

Indicate the recorded recovery value for this compound: COC(=O)[C@@H](C)NP(=O)(OC[C@H]1OC(OC(=O)c2cccnc2)[C@H](O)[C@@H]1O)Oc1ccccc1 (some centres unmarked)
87.9

Determine its reported recovery: NC(=O)N1c2ccccc2C=Cc2ccccc21 [Carbamazepine, reference compound]
91

Give the measured recovery for O=c1[nH]c2ccccc2n1CCCN1CCC(n2c(=O)[nH]c3cc(Cl)ccc32)CC1 [Domperidone, reference compound]
76.4

----------
System: human hepatocytes
Assay: Human hepatocyte stability
Conditions: 60 mins
Could you please mark fulfilled for values of % Parent Remaining below 20% and not fulfilled for values at or above it?

Solved cases (4 shown):
[
  {
    "Compound": "O=C(OC1O[C@H](CO)[C@@H](O)[C@H]1O)c1cccnc1 (some centres unmarked) [Compound 100]",
    "Label": "not fulfilled"
  },
  {
    "Compound": "COC(=O)[C@@H](C)N[P@](=O)(OC[C@H]1OC(OC(=O)c2cccnc2)[C@H](O)[C@@H]1O)Oc1ccccc1 (single isomer, unassigned) [Compound 103]",
    "Label": "fulfilled"
  },
  {
    "Compound": "COC(=O)[C@@H](C)N[P@@](=O)(OC[C@H]1OC(OC(=O)c2cccnc2)[C@H](O)[C@@H]1O)Oc1ccccc1 (single isomer, unassigned) [Compound 104]",
    "Label": "not fulfilled"
  },
  {
    "Compound": "C[C@]12CC[C@H]3[C@@H](CCC4=CC(=O)CC[C@@]43C)[C@@H]1CC[C@@H]2O [Testosterone, reference compound]",
    "Label": "fulfilled"
  }
]

Now look at this entry.
Consider the compound COC(=O)[C@@H](C)NP(=O)(OC[C@H]1OC(OC(=O)c2cccnc2)[C@H](O)[C@@H]1O)Oc1ccccc1 (some centres unmarked) [Compound 101] . Is its % Parent Remaining strictly less than 20%?
fulfilled

----------
Experiment: PK study in rats (plasma)
Assay type: in vivo
Settings: rat, plasma, iv, 40 mg/kg
Recorded Endpoint: Cmax (µM)
Entry rule: numbers only, all in µM.

Given the molecule O=C(O)c1cccnc1 , write its reported Cmax.
1240

----------
Assay: PK study in rats (plasma)
Assay type: in vivo
Details: rat; rats, Group 2: compound 100 83 mg/kg IV; analyte compound 100 in plasma
Recorded Endpoint: clearance (mL/min/kg)
Just the number please, in mL/min/kg, no unit attached.

Give a short answer stating reported clearance for O=C(OC1O[C@H](CO)[C@@H](O)[C@H]1O)c1cccnc1 (stereo partly shown) .
37.7

----------
Assay: in vitro
Conditions: human, plasma, % Unbound in plasma
Recorded Endpoint: fraction unbound at 5 h, 10 μM
Enter a number only.

Identify measured fraction unbound at 5 h, 10 μM associated with CC(=O)CC(c1ccccc1)c1c(O)c2ccccc2oc1=O (stereo not shown) [Warfarin, reference compound]
0.0054

----------
Assay: Human hepatocyte clearance
Assay type: in vitro ADME
Conditions: human hepatocytes
Experimental: A hepatocyte vial was taken out from the liquid nitrogen tank and was thawed in a water bath maintained at 37° C. The thawed cell suspension was transferred into a torsion tube containing 50 mL of thawing media (Xenotech). […] The cells were counted by using a haemocytometer after mixing an aliquot of cell suspension with equal volume of trypan blue. […]
Recorded Endpoint: hepatocyte CLint at 1 μM (µL/min/1e6 cells)
Give just the number in µL/min/1e6 cells; leave the unit off.

[
  {
    "Compound": "O=C(OC1O[C@H](CO)[C@@H](O)[C@H]1O)c1cccnc1 (some centres unmarked)",
    "Endpoint Value": 4.86
  }
]

Here's the next entry for you.
For O=C(OC[C@H]1OC(O)[C@H](O)[C@@H]1O)c1ccccn1 (some centres unmarked) , write its hepatocyte CLint at 1 μM.
15.2

----------
Assay: PK study in rats (plasma)
Format: in vivo
Settings: rat, plasma, po, 200 mg/kg
Recorded Endpoint: Tmax (h)
Give just the numeric value; h need not be written.

Give the value of Tmax reported for the following: O=C(O)c1cccnc1 [Nicotinic acid]
1.33

----------
Test system: human hepatocytes
Test: Human hepatocyte stability
Recorded Endpoint: clearance in human hepatocytes (in words)

[
  {
    "Molecule": "O=C(OC1O[C@H](CO)[C@@H](O)[C@H]1O)c1cccnc1 (stereo partly shown)",
    "Endpoint Value": "medium clearance"
  },
  {
    "Molecule": "O=C(OC[C@H]1OC(O)[C@H](O)[C@@H]1O)c1ccccn1 (stereo partly shown)",
    "Endpoint Value": "medium clearance"
  },
  {
    "Molecule": "COC(=O)[C@@H](C)N[P@@](=O)(OC[C@H]1OC(OC(=O)c2cccnc2)[C@H](O)[C@@H]1O)Oc1ccccc1 (single isomer, unassigned)",
    "Endpoint Value": "medium clearance"
  }
]

----------
Test: PK study in rats (plasma)
Assay type: in vivo
Conditions: rat, plasma, iv, 40 mg/kg; read-out: Vss
Recorded Endpoint: Vd
Write your answer as a measured quantity: the number, then the unit.

Give recorded Vd. O=C(O)c1cccnc1 [Nicotinic acid]
0.211 L/kg

----------
Experiment: PK study in rats (plasma)
Format: in vivo
Conditions: rat; rats, Group 2: compound 100 83 mg/kg IV; analyte compound 100 in plasma; read-out: Vss
Recorded Endpoint: Vd (L/kg)
Reply numerically in L/kg, unit not repeated.

Look up and state reported Vd for O=C(OC1O[C@H](CO)[C@@H](O)[C@H]1O)c1cccnc1 (stereo partly shown) [Compound 100]
3.4

----------
Experiment: PK study in rats (plasma)
Assay type: in vivo
Settings: rat, plasma, iv, 40 mg/kg
Recorded Endpoint: Tmax (min)
Write it as a number; the unit min goes unstated.

Item O=C(O)c1cccnc1 [Nicotinic acid] : provide Tmax
15

----------
Test system: human hepatocytes
Experiment: Human hepatocyte stability
Conditions: 0 mins
Recorded Endpoint: % Parent Remaining

[
  {
    "Compound": "COC(=O)[C@@H](C)N[P@@](=O)(OC[C@H]1OC(OC(=O)c2cccnc2)[C@H](O)[C@@H]1O)Oc1ccccc1 (single isomer, unassigned) [Compound 104]",
    "% Parent Remaining": "100%"
  },
  {
    "Compound": "C[C@]12CC[C@H]3[C@@H](CCC4=CC(=O)CC[C@@]43C)[C@@H]1CC[C@@H]2O [Testosterone, reference compound]",
    "% Parent Remaining": "100%"
  },
  {
    "Compound": "COC(=O)[C@@H](C)NP(=O)(OC[C@H]1OC(OC(=O)c2cccnc2)[C@H](O)[C@@H]1O)Oc1ccccc1 (some centres unmarked) [Compound 101]",
    "% Parent Remaining": "100%"
  }
]

For the compound O=C(OC1O[C@H](CO)[C@@H](O)[C@H]1O)c1cccnc1 (some centres unmarked) [Compound 100] , give its measured % Parent Remaining value.
100%

Return the recorded % Parent Remaining value; entry: COC(=O)[C@@H](C)N[P@](=O)(OC[C@H]1OC(OC(=O)c2cccnc2)[C@H](O)[C@@H]1O)Oc1ccccc1 (single isomer, unassigned) [Compound 103]
100%
